- TEST DETAILS: Compound loss (PDMS ad- and absorption) in cell-free organ-chips
- Format: in vitro ADME
- SETTINGS: cell-free organ-chips; 10 µM per drug in cocktail; outlet vs inlet after one hour at 200 µL/h; mean of two experiments
Assign condition met whenever Compound Loss Bottom Channel (%) does not fall below 20%; assign condition not met whenever it does.

## Task API: above_or_equal(metric=Compound Loss Bottom Channel (%), cutoff=20%) for item CC(C)(C)NC(=O)[C@@H]1C[C@@H]2CCCC[C@@H]2CN1C[C@@H](O)[C@H](Cc1ccccc1)NC(=O)[C@H](CC(N)=O)NC(=O)c1ccc2ccccc2n1 [Saquinavir]
## Result condition met

## Task Queued: C=C[C@H]1C[N@@]2CC[C@H]1C[C@@H]2[C@@H](O)c1ccnc2ccc(OC)cc12 [Quinidine]
## Result condition not met

## Task Queued: Cc1c(-c2ccc(O)cc2)n(Cc2ccc(OCCN3CCCCCC3)cc2)c2ccc(O)cc12 [Bazedoxifene]
## Result condition met

## Task Queued: O=C1CC2(CCCC2)CC(=O)N1CCCCN1CCN(c2ncccn2)CC1 [Busiprone]
## Result condition met

## Task Queued: CC(C)c1nc(N(C)S(C)(=O)=O)nc(-c2ccc(F)cc2)c1/C=C/[C@@H](O)C[C@@H](O)CC(=O)O [Rosuvastatin]
## Result condition not met
